- system.under.test: human mGluR2 receptor (Homo sapiens, UniProt Q14416)
- Construct: expressed in transfected cells
- Sequence (Q14416 19-872): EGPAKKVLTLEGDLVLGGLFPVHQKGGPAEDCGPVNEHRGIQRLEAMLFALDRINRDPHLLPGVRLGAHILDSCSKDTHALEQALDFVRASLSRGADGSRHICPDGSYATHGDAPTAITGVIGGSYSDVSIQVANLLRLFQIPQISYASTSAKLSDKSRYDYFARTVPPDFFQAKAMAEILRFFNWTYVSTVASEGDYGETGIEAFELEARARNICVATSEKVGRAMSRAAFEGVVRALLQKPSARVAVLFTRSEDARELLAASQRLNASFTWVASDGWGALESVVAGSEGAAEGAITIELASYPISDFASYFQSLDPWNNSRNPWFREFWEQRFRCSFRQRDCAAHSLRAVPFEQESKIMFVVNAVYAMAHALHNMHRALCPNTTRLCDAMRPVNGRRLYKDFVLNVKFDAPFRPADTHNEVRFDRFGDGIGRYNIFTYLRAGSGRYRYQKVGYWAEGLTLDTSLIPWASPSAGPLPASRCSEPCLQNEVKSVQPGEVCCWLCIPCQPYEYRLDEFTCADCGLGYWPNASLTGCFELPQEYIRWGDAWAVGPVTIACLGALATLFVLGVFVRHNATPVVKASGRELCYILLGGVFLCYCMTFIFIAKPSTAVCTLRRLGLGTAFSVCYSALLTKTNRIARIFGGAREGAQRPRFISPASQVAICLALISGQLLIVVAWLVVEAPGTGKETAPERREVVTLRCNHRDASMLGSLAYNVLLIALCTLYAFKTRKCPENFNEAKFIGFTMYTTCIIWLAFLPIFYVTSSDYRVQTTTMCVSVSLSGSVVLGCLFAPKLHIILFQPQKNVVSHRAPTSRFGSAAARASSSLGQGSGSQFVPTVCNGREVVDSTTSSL
- procedure.summary: [35S]-GTPγS binding assay of mGluR2 receptor activation
- Type: biochemical
- condition: membranes from CHO cells stably expressing human mGluR2; 1 μM glutamate
quantity.name: EC50 (nM)

// below: answered compounds
[
  {
    "compound": "Cc1cc(N2CCN(CCN(C)C)CC2)cc2c1C(=O)N(Cc1ccc(OC(F)(F)F)cc1)C2",
    "EC50, nM": 1200
  },
  {
    "compound": "Cc1cc(N2CCN3CCCC3C2)cc2c1C(=O)N(Cc1ccc(Oc3ccccc3)cc1)C2 (stereo not drawn)",
    "EC50, nM": 180
  },
  {
    "compound": "O=C1c2c(Cl)cc(Br)cc2CN1Cc1ccc(Cl)cc1",
    "EC50, nM": 470
  },
  {
    "compound": "O=C1c2c(Cl)cc(N3CCN(c4ccncc4)CC3)cc2CN1Cc1ccc(OC(F)(F)F)cc1",
    "EC50, nM": 400
  },
  {
    "compound": "CN1CN(c2ccccc2)C2(CCN(c3ccc4c(c3)CN(Cc3ccc(OC(F)(F)F)cc3)C4=O)CC2)C1=O",
    "EC50, nM": 480
  },
  {
    "compound": "O=C1c2c(Cl)cc(N3CCN4CCCC4C3)cc2CN1Cc1ccc(OC(F)(F)F)cc1 (stereo not drawn)",
    "EC50, nM": 480
  },
  {
    "compound": "Cc1cc(N2CCN(Cc3ccncc3)CC2)cc2c1C(=O)N(Cc1ccc(Cl)cc1)C2",
    "EC50, nM": 420
  }
]

(a) COc1cc(-c2cccnc2)cc2c1C(=O)N(Cc1ccc(OC(F)(F)F)cc1)C2
(b) Cc1cc(-c2ccncc2)cc2c1C(=O)N(Cc1ccc(Oc3ccccc3)cc1)C2
From the items above, decide which of a and b has the lower EC50 reading. Please identify the chosen entry by its label.
b
